Source listed as PubChem BioAssay AID504727.

Assay: DNA intercalators displacing acridine orange, dose response, artefact control for KSHV LANA DNA-binding inhibitor project, biochemical, fluorescence polarization, cherry-picked samples, set 2 (AID 504727)
Settings: Acridine orange-DNA displacement; series mostly up to 35 µM
The source made the active and inactive calls.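 The calls were made as follows: active = fitted half-maximal concentration AC50 at or below ten times the highest valid tested dose, with signal falling as DNA is displaced (actives reach about 34 µM in these data); inconclusive = flat fit at moderate signal loss, or poor fit quality; inactive = the rest, including signal rising instead of falling.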
Tick one outcome: true (active), false (inactive)

# example entries with known answers
| COMPOUND | CLASS_LABEL |
| --- | --- |
| Cc1cccc(-c2nsc(SCC(=O)Nc3nccs3)n2)c1 | false |
| O=C(Nc1ccc(Br)cn1)c1cccc2ccccc12 | false |
| CCC(C)[C@H](NC(=O)[C@@H]1Cc2ccccc2CN1)C(=O)Nc1ccc2c(c1)OCO2 (stereo not given in full) | false |
| CCOC(=O)c1ccccc1Nc1cc(C)nc2nc(C)nn12 | false |
| O=c1[nH]c(=S)[nH]c2c1C(c1ccc(Br)cc1)c1c([nH]c(=S)[nH]c1=O)O2 | false |

Ask: Recorded test call requested for Cc1ccc(N(C)C(=O)C2CCCN2S(=O)(=O)c2ccc3c(c2)n(C)c(=O)c(=O)n3C)cc1 (stereo not given)
Reply: false

Ask: I'd appreciate the recorded outcome for CCN(CC)CCCC(C)n1c2nc(=O)[nH]c(=O)c-2nc2cc(Cl)ccc21 (stereo not given) from this test.
Reply: true

Ask: Could you check what this test reported for COc1ccc(N(C(=O)c2ccc(Cl)cc2)C2=CC3CCC(C2)N3C)cc1 (stereo not given) ?
Reply: false

Ask: In this assay, the call recorded for COc1ccc(S(=O)(=O)N2CCC(C(=O)N3CCCCC3)CC2)cc1 was what?
Reply: false

Ask: Which outcome was assigned to O=C(O)CCCN1C(=O)/C(=C/C=C/c2ccco2)SC1=S in this test?
Reply: false

Ask: Please indicate how the test categorized Cc1nc2c(=O)[nH]c(=S)[nH]c2[nH]c1=O .
Reply: false

Ask: Hey, what did the test say about O=C(NCCCN1CCCC1=O)c1ccc2c(c1)ncn2C1CCCCC1 ?
Reply: false

Ask: In this assay, the call recorded for CCn1c(CN2CCCCC2)nc2cc(S(=O)(=O)N3CCCCC3)ccc21 was what?
Reply: false

Ask: What was the test verdict on Nc1ccc2cc3[nH]c4cc(N)ccc4c3nc2c1 ?
Reply: true

Ask: Which outcome did this test record for the compound Cn1c(Cl)c(C(=O)Nc2ccc(Cl)cc2)c2ccccc21 ?
Reply: false

Ask: # fetch the recorded call for CCCN(CCC)S(=O)(=O)c1ccc(C(=O)OCCN2C(=O)c3cccc4c(N5CCOCC5)ccc(c34)C2=O)cc1 here
Reply: true

Ask: How did this test come out for Nc1c(-c2ccccn2)cnn1-c1nc(-c2ccc(F)cc2)cs1 ?
Reply: false

Ask: How was O=C(CN1CC[C@@]2(O)CCCC[C@H]2[C@@H]1c1ccc(F)cc1)NCc1ccco1 classified in this test?
Reply: false

Ask: // return assay outcome for O=C(O)CCN1C(=O)/C(=C\c2ccc(-c3nc4ccccc4s3)o2)SC1=S
Reply: false

Ask: Given Brc1c(CSc2nncc3ccccc23)nc2ccccn12 , state the outcome it received in this test.
Reply: false

Ask: GET /call?item= CCOC(=O)c1sc(NC(=O)CSC(=S)N2CCN(C)CC2)nc1C returns the recorded outcome of this test.
Reply: false

Ask: Could you check what this test reported for COc1cccc(OC)c1C(=O)Nc1cc(C)on1 ?
Reply: false

Ask: Could you please tell me the result logged for Cn1c(=O)c2c(nc(N/N=C/c3ccc(OC(=O)c4ccco4)cc3)n2Cc2ccc(F)cc2)n(C)c1=O in this assay?
Reply: false

Ask: // return assay outcome for O=C1c2ccccc2C(=O)C1c1ccccn1
Reply: false

Ask: I would be grateful if you could indicate the recorded call for CCCCn1c(=O)[nH]c2nc3cc(N)ccc3nc2c1=O .
Reply: true

Ask: Record lookup: outcome of this test for CC(=O)N/C(=N\OCc1ccc(Br)cc1)c1nonc1NC(C)=O ?
Reply: false

Ask: Record request — test call for CCN(c1ccc(C)cc1C)S(=O)(=O)c1nnc(NC(=O)c2ccco2)s1
Reply: false

Ask: Which result was noted for this compound in the test: O=C1NC(=S)S/C1=C\C=C\c1ccc([N+](=O)[O-])o1
Reply: false
